# credit: patent US6949544B2

TARGET ENTITY: activated JNK3 (Homo sapiens)
Construct: One such construct encodes amino acid residues Ser40-Glu402 of JNK3α1 and is preceded by Met and Gly residues; Met-Gly (initiator methionine and added glycine) (N); made in house; host or cells: E. coli BL21 (DE3)
Sequence (P53779 40-402): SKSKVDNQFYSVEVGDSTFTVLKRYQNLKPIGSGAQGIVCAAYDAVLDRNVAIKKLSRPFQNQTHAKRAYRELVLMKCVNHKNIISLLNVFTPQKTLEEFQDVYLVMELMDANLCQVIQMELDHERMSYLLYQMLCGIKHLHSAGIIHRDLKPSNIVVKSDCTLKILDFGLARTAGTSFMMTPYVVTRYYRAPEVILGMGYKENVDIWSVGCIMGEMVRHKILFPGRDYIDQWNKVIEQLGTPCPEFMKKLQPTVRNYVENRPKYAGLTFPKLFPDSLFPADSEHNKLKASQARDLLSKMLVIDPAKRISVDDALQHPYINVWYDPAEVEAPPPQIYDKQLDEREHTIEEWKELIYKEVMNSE
ASSAY PROCEDURE: JNK inhibition assay (spectrophotometric coupled-enzyme assay)
Format: biochemical
CONDITIONS: 10 nM activated JNK3, 10 μM ATP; read-out: Activity in the JNK3 Inhibition Assay (Ki rating A-C)
pKi: −log10 of the molar value.
PARAMETER MEASURED: pKi

Ask: Quick check: pKi of COc1cc(-c2ccnc(Nc3cccc(F)c3)c2)cc(OC)c1OC [Compound I-154] ?
Result: 6.00 to 7.00

Ask: Quick check: pKi of COc1cc(-c2ccnc(Nc3cccc(Cl)c3)n2)cc2c1OCO2 [Compound I-30] ?
Result: < 6.00

Ask: Quick check: pKi of COc1cc(-c2ccnc(Nc3cccc(F)c3)n2)cc2c1OCCO2 [Compound I-79] ?
Result: > 7.00

Ask: Quick check: pKi of COc1ccc(Nc2nccc(-c3cc(OC)c(OC)c(OC)c3)n2)cc1Cl [Compound I-35] ?
Result: > 7.00

Ask: Quick check: pKi of CCOc1c(OC)cc(-c2ccnc(Nc3cccc(Cl)c3)n2)cc1OC [Compound I-40] ?
Result: > 7.00

Ask: Quick check: pKi of COc1c(Cl)cc(-c2ccnc(Nc3cccc(C)c3)n2)cc1Cl [Compound I-55] ?
Result: > 7.00

Ask: Quick check: pKi of COc1cc(-c2ccnc(Nc3cc(Cl)cc(Cl)c3)n2)cc(OC)c1OC [Compound I-23] ?
Result: > 7.00

Ask: Quick check: pKi of COc1c(Br)cc(-c2ccnc(Nc3cccc(Cl)c3)n2)cc1Br [Compound I-43] ?
Result: 6.00 to 7.00

Ask: Quick check: pKi of COc1c(Cl)cc(-c2ccnc(Nc3cccc(F)c3)n2)cc1Cl [Compound I-46] ?
Result: 6.00 to 7.00

Ask: Quick check: pKi of COc1cccc(Nc2nccc(-c3cc(OC)c(OC)c(OC)c3)n2)c1 [Compound I-20] ?
Result: > 7.00

Ask: Quick check: pKi of COc1cc(-c2ccnc(Nc3cccc(C)c3)n2)cc2c1OCCO2 [Compound I-81] ?
Result: > 7.00

Ask: Quick check: pKi of COc1cc(-c2ccnc(Nc3cc(C)cc(C)c3)n2)cc(OC)c1OC [Compound I-24] ?
Result: 6.00 to 7.00

Ask: Quick check: pKi of COc1cc(-c2ccnc(Nc3ccc(N)cc3)n2)cc(OC)c1OC [Compound I-34] ?
Result: > 7.00

Ask: Quick check: pKi of COc1cc(-c2ccnc(Nc3cccc([N+](=O)[O-])c3)n2)cc(OC)c1OC [Compound I-36] ?
Result: > 7.00

Ask: Quick check: pKi of COc1cc(-c2ccnc(Nc3cccc(N)c3)n2)cc(OC)c1OC [Compound I-57] ?
Result: > 7.00

Ask: Quick check: pKi of COc1cc(-c2ccnc(Nc3cc(F)c(F)c(F)c3)n2)cc(OC)c1OC [Compound I-22] ?
Result: > 7.00

Ask: Quick check: pKi of COc1cc(-c2ccnc(Nc3c(C)cccc3C)n2)cc(OC)c1OC [Compound I-8] ?
Result: < 6.00

Ask: Quick check: pKi of COc1cc(-c2ccnc(Nc3ccc(C)cc3)n2)cc(OC)c1OC [Compound I-17] ?
Result: > 7.00

Ask: Quick check: pKi of COc1cc(-c2ccnc(Nc3ccccc3C)n2)cc(OC)c1OC [Compound I-7] ?
Result: 6.00 to 7.00

Ask: Quick check: pKi of COc1cc(-c2ccnc(Nc3nc(C)cs3)n2)cc(OC)c1OC [Compound I-10] ?
Result: 6.00 to 7.00

Ask: Quick check: pKi of COc1cc(-c2ccnc(Nc3ccc(Cl)cc3)n2)cc(OC)c1OC [Compound I-9] ?
Result: > 7.00

Ask: Quick check: pKi of COc1cc(-c2ccnc(Nc3cccc(C)c3)n2)cc(OC)c1OCCN1CCOCC1 [Compound I-53] ?
Result: > 7.00

Ask: Quick check: pKi of COc1cc(-c2ccnc(Nc3ccc(Cl)cc3)n2)cc2c1OCCO2 [Compound I-76] ?
Result: > 7.00

Ask: Quick check: pKi of COc1cc(-c2ccnc(Nc3ccc(S(N)(=O)=O)cc3)n2)cc(OC)c1OC [Compound I-66] ?
Result: > 7.00

Ask: Quick check: pKi of COc1ccc(-c2ccnc(Nc3ncnc(Nc4ccccc4)n3)n2)c(OC)c1OC [II-32] ?
Result: > 7.00

Ask: Quick check: pKi of COc1cc(-c2ccnc(Nc3ccccc3)n2)cc2c1OCO2 [Compound I-26] ?
Result: 6.00 to 7.00
